Data origin: patent US4314028A

System: Proteus mirabilis A9554
Experiment: MIC, two-fold agar dilution method
Type: cell-based
Conditions: nutrient agar
measured-parameter: minimum inhibitory concentration (MIC)

{"molecule": "Cc1c(N)nc([C@H](CC(N)=O)NC[C@@H](N)C(N)=O)nc1C(=O)N[C@H](C(=O)N[C@H](C)[C@@H](O)CC(=O)N[C@@H](C(=O)NC(O[C@@H]1O[C@@H](C)[C@@H](N)[C@@H](O)[C@H]1O)C(O)c1nc(-c2nc(C(=O)NCCCNCCCCN)cs2)cs1)[C@@H](C)O)C(O[C@@H]1O[C@@H](CO)[C@H](O)[C@@H](O)[C@@H]1O[C@H]1O[C@H](CO)[C@@H](O)[C@@H](OC(N)=O)[C@@H]1O)c1cnc[nH]1 (stereo partly drawn) [Tallysomycin B, reference compound]", "endpoint-result": 0.2}
{"molecule": "Cc1c(N)nc(C(CC(N)=O)NCC(N)C(N)=O)nc1C(=O)NC(C(=O)NC(C)C(O)CC(=O)NC(C(=O)NC(OC1OC(C)C(N)C(O)C1O)C(O)c1nc(-c2nc(C(=O)NCCCNCCO)cs2)cs1)C(C)O)C(OC1OC(CO)C(O)C(O)C1OC1OC(CO)C(O)C(OC(N)=O)C1O)c1c[nH]cn1 (stereo not drawn)", "endpoint-result": 3.1}
{"molecule": "Cc1c(N)nc(C(CC(N)=O)NCC(N)C(N)=O)nc1C(=O)NC(C(=O)NC(C)C(O)CC(=O)NC(C(=O)NC(OC1OC(C)C(N)C(O)C1O)C(O)c1nc(-c2nc(C(=O)NCCCC(N)CC(=O)NCCCCN)cs2)cs1)C(C)O)C(OC1OC(CO)C(O)C(O)C1OC1OC(CO)C(O)C(OC(N)=O)C1O)c1c[nH]cn1 (stereo not drawn) [Tallysomycin S10a]", "endpoint-result": 0.8}

* * *

Listing of recorded Antitumor therapeutic index B16 by entry.
Test system: Melanotic melanoma B16
Assay: Antitumor activity in mice, melanotic melanoma B16
Format: in vivo, BDF1 mice
Details: single dose LD50/ID50; copper-chelated form unless otherwise stated

{"compound": "Cc1c(N)nc(C(CC(N)=O)NCC(N)C(N)=O)nc1C(=O)NC(C(=O)NC(C)C(O)CC(=O)NC(C(=O)NC(OC1OC(C)C(N)C(O)C1O)C(O)c1nc(-c2nc(C(=O)NCCCC(N)CC(=O)NCCC[S+](C)C)cs2)cs1)C(C)O)C(OC1OC(CO)C(O)C(O)C1OC1OC(CO)C(O)C(OC(N)=O)C1O)c1c[nH]cn1 (stereo not shown) [Tallysomycin S2a]", "Antitumor therapeutic index B16": 147}
{"compound": "Cc1c(N)nc(C(CC(N)=O)NCC(N)C(N)=O)nc1C(=O)NC(C(=O)NC(C)C(O)CC(=O)NC(C(=O)NC(OC1OC(C)C(N)C(O)C1O)C(O)c1nc(-c2nc(C(=O)NCC(O)CN)cs2)cs1)C(C)O)C(OC1OC(CO)C(O)C(O)C1OC1OC(CO)C(O)C(OC(N)=O)C1O)c1c[nH]cn1 (stereo not shown) [Tallysomycin S4b]", "Antitumor therapeutic index B16": 26}
{"compound": "Cc1c(N)nc(C(CC(N)=O)NCC(N)C(N)=O)nc1C(=O)NC(C(=O)NC(C)C(O)CC(=O)NC(C(=O)NC(OC1OC(C)C(N)C(O)C1O)C(O)c1nc(-c2nc(C(=O)NCCN)cs2)cs1)C(C)O)C(OC1OC(CO)C(O)C(O)C1OC1OC(CO)C(O)C(OC(N)=O)C1O)c1c[nH]cn1 (stereo not shown) [Tallysomycin S3b]", "Antitumor therapeutic index B16": 95}
{"compound": "Cc1c(N)nc(C(CC(N)=O)NCC(N)C(N)=O)nc1C(=O)NC(C(=O)NC(C)C(O)CC(=O)NC(C(=O)NC(OC1OC(C)C(N)C(O)C1O)C(O)c1nc(-c2nc(C(=O)NCCCN3CCOCC3)cs2)cs1)C(C)O)C(OC1OC(CO)C(O)C(O)C1OC1OC(CO)C(O)C(OC(N)=O)C1O)c1c[nH]cn1 (stereo not shown) [Tallysomycin S12b]", "Antitumor therapeutic index B16": "> 38"}
{"compound": "Cc1c(N)nc(C(CC(N)=O)NCC(N)C(N)=O)nc1C(=O)NC(C(=O)NC(C)C(O)CC(=O)NC(C(=O)NC(OC1OC(C)C(N)C(O)C1O)C(O)c1nc(-c2nc(C(=O)NCCCC(N)CC(=O)NCCCNCCO)cs2)cs1)C(C)O)C(OC1OC(CO)C(O)C(O)C1OC1OC(CO)C(O)C(OC(N)=O)C1O)c1c[nH]cn1 (stereo not shown) [Tallysomycin S6a]", "Antitumor therapeutic index B16": 125}
{"compound": "Cc1c(N)nc([C@H](CC(N)=O)NC[C@H](N)C(N)=O)nc1C(=O)N[C@H](C(=O)N[C@H](C)[C@@H](O)CC(=O)N[C@H](C(=O)NC(O[C@@H]1O[C@@H](C)[C@@H](N)[C@@H](O)[C@H]1O)C(O)c1nc(-c2nc(C(=O)NCCCCN)cs2)cs1)[C@@H](C)O)[C@@H](O[C@@H]1O[C@@H](CO)[C@@H](O)[C@H](O)[C@@H]1O[C@H]1O[C@H](CO)[C@@H](O)[C@H](OC(N)=O)[C@@H]1O)c1cnc[nH]1 (stereo partly shown) [Tallysomycin S10b]", "Antitumor therapeutic index B16": 46}
{"compound": "Cc1c(N)nc(C(CC(N)=O)NCC(N)C(N)=O)nc1C(=O)NC(C(=O)NC(C)C(O)CC(=O)NC(C(=O)NC(OC1OC(C)C(N)C(O)C1O)C(O)c1nc(-c2nc(C(=O)NCCCNCCO)cs2)cs1)C(C)O)C(OC1OC(CO)C(O)C(O)C1OC1OC(CO)C(O)C(OC(N)=O)C1O)c1c[nH]cn1 (stereo not shown) [Tallysomycin S6b]", "Antitumor therapeutic index B16": 136}
